Item-by-item account of MIC
test system: Pro. vulgaris GN3027; assay: Antibacterial activity (MIC), agar dilution; assay type: cell-based; details: Proteus vulgaris, GN3027, 20 h, Pro. vulgaris GN3027; 10^6 cells per ml; 37° C., 20 hours; read-out: MIC

Answered examples (4):
For the compound "Cc1cc(O)ccc1-n1cc(C(=O)O)c(=O)cc1-c1ccc(N(C)C)cc1" , what MIC is on record?
0.1 µg/mL

Please look up its MIC: "O=C(O)c1cn(-c2ccc(O)cc2F)c(-c2cc3ccccc3s2)cc1=O"
≤ 0.05 µg/mL

MIC for "O=C(O)c1cn(-c2ccc(F)cc2)c(-c2ccc(N=Cc3ccc([N+](=O)[O-])o3)cc2)cc1=O" ?
0.39 µg/mL

I am curious: what MIC value has been reported for "O=C(O)c1cn(-c2ccc(O)cc2)c(-c2cc3ccccc3s2)cc1=O" ?
≤ 0.05 µg/mL

Let us move to another entry and its MIC.
So what's the measured MIC for this one? "CN(C)c1ccc(-c2cc(=O)c(C(=O)O)cn2-c2ccc(O)c(F)c2)cc1"
0.2 µg/mL
